The entries below come with measured Ki values attached.
Study system: dopamine transporter (DAT) (Rattus norvegicus, UniProt P23977)
Sequence (P23977 whole entry): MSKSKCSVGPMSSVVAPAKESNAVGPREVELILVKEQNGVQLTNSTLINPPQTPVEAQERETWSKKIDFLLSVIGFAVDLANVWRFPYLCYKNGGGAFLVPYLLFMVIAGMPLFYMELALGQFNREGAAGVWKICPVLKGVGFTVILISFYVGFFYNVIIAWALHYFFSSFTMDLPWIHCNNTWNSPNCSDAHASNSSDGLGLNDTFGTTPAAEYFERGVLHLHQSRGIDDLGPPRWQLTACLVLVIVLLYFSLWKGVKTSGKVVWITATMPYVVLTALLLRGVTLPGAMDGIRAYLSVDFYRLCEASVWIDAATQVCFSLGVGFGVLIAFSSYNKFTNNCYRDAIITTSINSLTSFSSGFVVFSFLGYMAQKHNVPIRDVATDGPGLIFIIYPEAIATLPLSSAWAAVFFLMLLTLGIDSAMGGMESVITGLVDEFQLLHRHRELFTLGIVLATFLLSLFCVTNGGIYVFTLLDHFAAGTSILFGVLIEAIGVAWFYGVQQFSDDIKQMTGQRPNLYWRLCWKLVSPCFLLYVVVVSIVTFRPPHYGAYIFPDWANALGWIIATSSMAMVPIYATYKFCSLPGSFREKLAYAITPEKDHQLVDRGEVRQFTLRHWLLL
Assay notes: [3H]DA uptake assay, synaptosomal preparation
Give just the numeric value; µM need not be written.

>>> quantitative_readout("CC(Cc1ccc(F)c(F)c1)NCCCc1ccc(S(N)(=O)=O)cc1 (stereo not shown)")
8.24

What does the record list as Ki for CC(Cc1ccc(F)c(F)c1)NCCCc1ccc2nccnc2c1 (stereo not shown) ?
3.58

What does the record list as Ki for CC(Cc1cc(F)cc(F)c1)NCCCc1ccc(C(N)=O)cc1 (stereo not shown) ?
1.57

What does the record list as Ki for CC(Cc1ccc(F)c(F)c1)NCCCc1ccc2cnoc2c1 (stereo not shown) ?
2.72
